meta.source: paper PMC9865752

- target-of-assay: mushroom tyrosinase
- assay-summary: Mushroom tyrosinase inhibition assay
- Assay type: biochemical
- condition-notes: substrate L-tyrosine; mean ± SEM of three experiments; read-out: IC50 (µM) L-Tyrosine
parameter-measured: IC50 (µM)

Check out these entries, answers already filled in.
COc1ccc(/C=C2\SC(NCc3ccccc3)=NC2=O)cc1O [Compound 7] | 10
COc1ccc(/C=C2\SC(NCc3ccccc3)=NC2=O)cc1 [Compound 2] | 126
O=C1N=C(NCc2ccccc2)S/C1=C\c1ccc(O)cc1 [Compound 1] | 27.5

I = CC(C)(C)c1cc(/C=C2\SC(NCc3ccccc3)=NC2=O)cc(C(C)(C)C)c1O [Compound 13]
II = O=C1N=C(NCc2ccccc2)S/C1=C\c1ccc(F)c(F)c1 [Compound 4]
Please state the entry with greater IC50 among I and II . # reply format: chosen label
II
